Recorded measurements of Plant response rating, Pigweed, one per entry
# Tested on: pigweed (Amaranthus retroflexus)
# assay-method-text: Test B pre-/postemergence plant response
# Type: in vivo
# test-parameters: Preemergence, 31 g ai/ha; scale 0 to 100 (0 no effect, 100 complete control)
assay-endpoint: Plant response rating, Pigweed

[[record]]
input_smiles = "Cc1cc(-c2ccc(Cl)cc2)nn1-c1c(OC(=O)c2cccs2)cnn(C)c1=O"
assay_endpoint = "Plant response rating, Pigweed"
measurement = 0

[[record]]
input_smiles = "CCc1cc(-c2ccc(Br)cc2)nn1-c1c(O)c(C)nn(C)c1=O"
assay_endpoint = "Plant response rating, Pigweed"
measurement = 0

[[record]]
input_smiles = "Cc1ccc(-c2ccc(Cl)cc2)cc1-c1c(O)cnn(C)c1=O"
assay_endpoint = "Plant response rating, Pigweed"
measurement = 60

[[record]]
input_smiles = "CCc1c(C)c(-c2ccc(Br)cc2)nn1-c1c(O)cnn(C)c1=O"
assay_endpoint = "Plant response rating, Pigweed"
measurement = 0

[[record]]
input_smiles = "Cc1cc(-c2ccc(Cl)cc2)nn1-c1c(OS(=O)(=O)c2cccc3ccccc23)cnn(C)c1=O"
assay_endpoint = "Plant response rating, Pigweed"
measurement = 0

[[record]]
input_smiles = "CCc1cc(-c2ccc(C(F)(F)F)cc2)nn1-c1c(O)c(OC)nn(C)c1=O"
assay_endpoint = "Plant response rating, Pigweed"
measurement = 0


----------
# Tested on: large crabgrass (Digitaria sanguinalis)
# assay-method-text: Test A pre-/postemergence plant response
# Type: in vivo
# test-parameters: Postemergence, 31 g ai/ha; 0 to 100 scale, 0 no effect, 100 complete control
assay-endpoint: Plant response rating, Crabgrass, Large

[[record]]
molecule = "CCCc1cc(-c2ccc(Cl)cc2)nn1-c1c(O)cnn(C)c1=O [Compound 43]"
assay_endpoint = "Plant response rating, Crabgrass, Large"
measurement = 40

[[record]]
molecule = "Cc1nn(C)c(=O)c(-n2nc(-c3ccc(Cl)cc3)cc2Cl)c1O"
assay_endpoint = "Plant response rating, Crabgrass, Large"
measurement = 50

[[record]]
molecule = "CCCc1cc(-c2ccc(Cl)cc2)nn1-c1c(O)cnn(C)c1=O [Compound 76]"
assay_endpoint = "Plant response rating, Crabgrass, Large"
measurement = 20

[[record]]
molecule = "CCc1cc(-c2ccc(Cl)cc2)nn1-c1c(O)c(C)nn(C)c1=O"
assay_endpoint = "Plant response rating, Crabgrass, Large"
measurement = 70

[[record]]
molecule = "CCc1c(C)c(-c2ccc(Br)cc2)nn1-c1c(O)cnn(C)c1=O"
assay_endpoint = "Plant response rating, Crabgrass, Large"
measurement = 60

[[record]]
molecule = "Cc1cc(-c2ccc(Cl)cc2)nn1-c1c(OS(=O)(=O)c2ccccc2)cnn(C)c1=O"
assay_endpoint = "Plant response rating, Crabgrass, Large"
measurement = 40


----------
Recorded measurements of Plant response rating, Foxtail, Green, one per entry
# Tested on: green foxtail (Setaria viridis)
# assay-method-text: Test B pre-/postemergence plant response
# Assay type: in vivo
# test-parameters: Postemergence, 62 g ai/ha; scale 0 to 100, 0 no effect, 100 complete control
assay-endpoint: Plant response rating, Foxtail, Green

[[record]]
input_smiles = "Cc1cc(-c2ccc(C(F)(F)F)c(F)c2)nn1-c1c(O)c(C(F)(F)F)nn(C)c1=O"
assay_endpoint = "Plant response rating, Foxtail, Green"
measurement = 100

[[record]]
input_smiles = "Cc1nn(C)c(=O)c(-n2nc(-c3ccc(Cl)cc3)cc2Cl)c1O"
assay_endpoint = "Plant response rating, Foxtail, Green"
measurement = 95

[[record]]
input_smiles = "COc1nn(C)c(=O)c(-n2nc(-c3ccc(Br)cc3)cc2C)c1O"
assay_endpoint = "Plant response rating, Foxtail, Green"
measurement = 100

[[record]]
input_smiles = "CCOC(=O)Oc1cnn(C)c(=O)c1-n1nc(-c2ccc(Cl)cc2)cc1C"
assay_endpoint = "Plant response rating, Foxtail, Green"
measurement = 100

[[record]]
input_smiles = "CCCC(=O)Oc1cnn(C)c(=O)c1-n1nc(-c2ccc(Cl)cc2)cc1C"
assay_endpoint = "Plant response rating, Foxtail, Green"
measurement = 100

[[record]]
input_smiles = "Cc1cc(-c2ccc(Cl)cc2)nn1-c1c(OC(=O)c2cccs2)cnn(C)c1=O"
assay_endpoint = "Plant response rating, Foxtail, Green"
measurement = 100


----------
# System: downy bromegrass (Bromus tectorum)
# assay-method-text: Test B pre-/postemergence plant response
# Type: in vivo
# test-parameters: Postemergence, 31 g ai/ha; scale 0 to 100
# Description: […] Plant species in the flooded paddy test consisted of rice (Oryza sativa), umbrella sedge (Cyperus difformis), ducksalad (Heteranthera limosa) and barnyardgrass (Echinochloa crus-galli) grown to the 2-leaf stage for testing. […] Treated plants and controls were maintained in a greenhouse for 13 to 15 days, after which time all species were compared to controls and visually evaluated. […]
Recorded measurements of Plant response rating, Bromegrass, Downy, one per entry
assay-endpoint: Plant response rating, Bromegrass, Downy

[[record]]
input_smiles = "Cc1cc(-c2ccc(Cl)cc2)nn1-c1c(OC(=O)Oc2ccccc2)cnn(C)c1=O"
measurement = 50

[[record]]
input_smiles = "Cn1ncc(O)c(-n2nc(-c3ccc(Cl)cc3)cc2C2CC2)c1=O"
measurement = 90

[[record]]
input_smiles = "Cc1cc(-c2ccc(Cl)cc2)nn1-c1c(OC(=O)c2cccs2)cnn(C)c1=O"
measurement = 40

[[record]]
input_smiles = "CCc1cc(-c2ccc(Br)cc2)nn1-c1c(O)cnn(CC(F)(F)F)c1=O"
measurement = 30


----------
Recorded measurements of Plant response rating, Ryegrass, Italian, one per entry
# Tested on: Italian ryegrass (Lolium multiflorum)
# assay-method-text: Test B pre-/postemergence plant response
# Assay type: in vivo
# test-parameters: Preemergence, 62 g ai/ha; scale 0 to 100
assay-endpoint: Plant response rating, Ryegrass, Italian

[[record]]
input_smiles = "Cc1cc(-c2ccc(Cl)cc2)nn1-c1c(OC(=O)c2cccc(Cl)c2)cnn(C)c1=O"
system_name = "Italian ryegrass (Lolium multiflorum)"
assay_endpoint = "Plant response rating, Ryegrass, Italian"
measurement = 100

[[record]]
input_smiles = "Cn1ncc(O)c(-n2nc(-c3ccc(Cl)cc3)cc2C2CC2)c1=O"
system_name = "Italian ryegrass (Lolium multiflorum)"
assay_endpoint = "Plant response rating, Ryegrass, Italian"
measurement = 100

[[record]]
input_smiles = "Cc1cc(-c2ccc(Cl)cc2)nn1-c1c(OS(=O)(=O)c2cccc3ccccc23)cnn(C)c1=O"
system_name = "Italian ryegrass (Lolium multiflorum)"
assay_endpoint = "Plant response rating, Ryegrass, Italian"
measurement = 98

[[record]]
input_smiles = "CCc1cc(-c2ccc(Cl)cc2)nn1-c1c(O)cnn(C)c1=O"
system_name = "Italian ryegrass (Lolium multiflorum)"
assay_endpoint = "Plant response rating, Ryegrass, Italian"
measurement = 100

[[record]]
input_smiles = "Cc1ccc(-c2ccc(Cl)cc2)cc1-c1c(O)cnn(C)c1=O"
system_name = "Italian ryegrass (Lolium multiflorum)"
assay_endpoint = "Plant response rating, Ryegrass, Italian"
measurement = 100

[[record]]
input_smiles = "Cc1cc(-c2ccc(Cl)cc2)nn1-c1c(OC(=O)CC(C)C)cnn(C)c1=O"
system_name = "Italian ryegrass (Lolium multiflorum)"
assay_endpoint = "Plant response rating, Ryegrass, Italian"
measurement = 100


----------
# System: goosegrass (Eleusine indica)
# assay-method-text: Test B pre-/postemergence plant response
# Format: in vivo
# test-parameters: Preemergence; 8 g ai/ha; scale 0 to 100
# Text: […] Plant species in the flooded paddy test consisted of rice (Oryza sativa), umbrella sedge (Cyperus difformis), ducksalad (Heteranthera limosa) and barnyardgrass (Echinochloa crus-galli) grown to the 2-leaf stage for testing. […] Treated plants and controls were maintained in a greenhouse for 13 to 15 days, after which time all species were compared to controls and visually evaluated. […]
Recorded measurements of Goosegrass plant response rating, one per entry
assay-endpoint: Goosegrass plant response rating

[[record]]
compound = "Cc1cc(-c2ccc(C(F)(F)F)c(F)c2)nn1-c1c(O)c(C(F)(F)F)nn(C)c1=O [Compound 44]"
system_name = "goosegrass (Eleusine indica)"
measurement = 0

[[record]]
compound = "Cc1cc(-c2ccc(C(F)(F)F)cc2)nn1-c1c(O)c(C(C)C)nn(C)c1=O [Compound 27]"
system_name = "goosegrass (Eleusine indica)"
measurement = 0

[[record]]
compound = "Cc1cc(-c2ccc(Cl)cc2)nn1-c1c(OC(=O)Oc2ccccc2)cnn(C)c1=O [Compound 54]"
system_name = "goosegrass (Eleusine indica)"
measurement = 0

[[record]]
compound = "CCCC(=O)Oc1cnn(C)c(=O)c1-n1nc(-c2ccc(Cl)cc2)cc1C [Compound 56]"
system_name = "goosegrass (Eleusine indica)"
measurement = 75

[[record]]
compound = "CCCc1cc(-c2ccc(Cl)cc2)nn1-c1c(O)cnn(C)c1=O [Compound 76]"
system_name = "goosegrass (Eleusine indica)"
measurement = 20

[[record]]
compound = "CCc1cc(-c2ccc(Cl)cc2)nn1-c1c(O)cnn(C)c1=O [Compound 21]"
system_name = "goosegrass (Eleusine indica)"
measurement = 10


----------
# Tested on: giant foxtail (Setaria faberi)
# assay-method-text: Test A pre-/postemergence plant response
# Format: in vivo
# test-parameters: Postemergence, 125 g ai/ha; 0 to 100 scale, 0 no effect, 100 complete control
Each entry gets F if its Plant response rating, Foxtail, Giant stays under 70, and T if its Plant response rating, Foxtail, Giant is 70 or above.

[[record]]
compound = "Cc1cc(-c2ccc(Cl)cc2)nn1-c1c(OS(=O)(=O)C2CC2)cnn(C)c1=O [Compound 49]"
label_value = "F"

[[record]]
compound = "CCOC(=O)Oc1cnn(C)c(=O)c1-n1nc(-c2ccc(Cl)cc2)cc1C [Compound 53]"
label_value = "T"

[[record]]
compound = "Cc1cc(-c2ccc(Cl)cc2)nn1-c1c(OC(=O)c2cccc(Cl)c2)cnn(C)c1=O [Compound 32]"
label_value = "T"

[[record]]
compound = "CCc1cc(-c2ccc(Cl)cc2)nn1-c1c(O)c(C)nn(C)c1=O [Compound 86]"
label_value = "T"

[[record]]
compound = "Cc1cc(-c2ccc(Cl)cc2)nn1-c1c(OS(=O)(=O)C(C)C)cnn(C)c1=O [Compound 50]"
label_value = "F"

[[record]]
compound = "CCc1cc(-c2ccc(Br)cc2)nn1-c1c(O)c(C)nn(C)c1=O [Compound 74]"
label_value = "T"

[[record]]
compound = "Cc1cc(-n2cc(Cl)cn2)ccc1-c1c(O)cnn(C)c1=O [Compound 60]"
label_value = "F"


Where do these numbers come from? They come from patent US20100267561A1.
